Every entry's value here was drawn from ChEMBL document CHEMBL1142242.

experimental.system: Peroxisome proliferator-activated receptor alpha (Homo sapiens, UniProt Q07869)
Sequence (Q07869 whole entry): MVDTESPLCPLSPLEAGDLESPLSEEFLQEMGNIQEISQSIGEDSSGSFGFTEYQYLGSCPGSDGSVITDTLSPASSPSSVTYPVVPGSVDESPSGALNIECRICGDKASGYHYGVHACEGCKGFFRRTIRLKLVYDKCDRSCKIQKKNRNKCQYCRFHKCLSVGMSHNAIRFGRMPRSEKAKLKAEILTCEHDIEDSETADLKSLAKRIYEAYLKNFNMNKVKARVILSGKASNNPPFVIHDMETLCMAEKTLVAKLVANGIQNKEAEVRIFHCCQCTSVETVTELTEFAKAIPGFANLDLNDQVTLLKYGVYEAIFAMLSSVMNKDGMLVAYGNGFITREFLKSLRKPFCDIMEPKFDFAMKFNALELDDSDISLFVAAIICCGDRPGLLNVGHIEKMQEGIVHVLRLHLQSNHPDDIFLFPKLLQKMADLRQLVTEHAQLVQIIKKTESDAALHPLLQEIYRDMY
test.summary: Agonist activity at human PPAR alpha by FRET assay
Assay type: functional
pEC50: −log10 of the molar value.
pEC50 of 6 or higher: criterion met. Under 6: criterion not met.

entry.smiles: O=C(O)C[C@@H]1CCc2cc(OCCCOc3ccc(OC(F)(F)F)cc3)ccc21
class.label: criterion not met

entry.smiles: COc1cc(C#N)ccc1OCCCOc1ccc2c(c1)CC[C@H]2CC(=O)O
class.label: criterion not met

entry.smiles: O=C(O)C[C@@H]1CCc2cc(OCCCOc3ccc(-n4cncn4)cc3)ccc21
class.label: criterion not met

entry.smiles: COc1cc(-c2nc(C)c(C(C)=O)s2)ccc1OCCCOc1ccc2c(c1)CC[C@H]2CC(=O)O
class.label: criterion met

entry.smiles: CCCc1c(OCCCOc2ccc3c(c2)CC[C@H]3CC(=O)O)ccc2c(C)noc12
class.label: criterion not met

entry.smiles: Cc1ccc(OCCCOc2ccc3c(c2)CC[C@H]3CC(=O)O)c(C)c1
class.label: criterion not met

entry.smiles: O=C(O)C[C@@H]1CCc2cc(OCCCOc3ccc(-c4ccc(C(F)(F)F)cn4)cc3)ccc21
class.label: criterion not met

entry.smiles: CCOc1ccc(OCCCOc2ccc3c(c2)CC[C@H]3CC(=O)O)cc1
class.label: criterion not met

entry.smiles: Cc1coc2cc(OCCCOc3ccc4c(c3)CC[C@H]4CC(=O)O)ccc12
class.label: criterion not met

entry.smiles: CCOc1csc(-c2ccc(OCCCOc3ccc4c(c3)CC[C@H]4CC(=O)O)cc2)n1
class.label: criterion met

----------
experimental.system: Androgen receptor (Homo sapiens)
Sequence (P10275 whole entry): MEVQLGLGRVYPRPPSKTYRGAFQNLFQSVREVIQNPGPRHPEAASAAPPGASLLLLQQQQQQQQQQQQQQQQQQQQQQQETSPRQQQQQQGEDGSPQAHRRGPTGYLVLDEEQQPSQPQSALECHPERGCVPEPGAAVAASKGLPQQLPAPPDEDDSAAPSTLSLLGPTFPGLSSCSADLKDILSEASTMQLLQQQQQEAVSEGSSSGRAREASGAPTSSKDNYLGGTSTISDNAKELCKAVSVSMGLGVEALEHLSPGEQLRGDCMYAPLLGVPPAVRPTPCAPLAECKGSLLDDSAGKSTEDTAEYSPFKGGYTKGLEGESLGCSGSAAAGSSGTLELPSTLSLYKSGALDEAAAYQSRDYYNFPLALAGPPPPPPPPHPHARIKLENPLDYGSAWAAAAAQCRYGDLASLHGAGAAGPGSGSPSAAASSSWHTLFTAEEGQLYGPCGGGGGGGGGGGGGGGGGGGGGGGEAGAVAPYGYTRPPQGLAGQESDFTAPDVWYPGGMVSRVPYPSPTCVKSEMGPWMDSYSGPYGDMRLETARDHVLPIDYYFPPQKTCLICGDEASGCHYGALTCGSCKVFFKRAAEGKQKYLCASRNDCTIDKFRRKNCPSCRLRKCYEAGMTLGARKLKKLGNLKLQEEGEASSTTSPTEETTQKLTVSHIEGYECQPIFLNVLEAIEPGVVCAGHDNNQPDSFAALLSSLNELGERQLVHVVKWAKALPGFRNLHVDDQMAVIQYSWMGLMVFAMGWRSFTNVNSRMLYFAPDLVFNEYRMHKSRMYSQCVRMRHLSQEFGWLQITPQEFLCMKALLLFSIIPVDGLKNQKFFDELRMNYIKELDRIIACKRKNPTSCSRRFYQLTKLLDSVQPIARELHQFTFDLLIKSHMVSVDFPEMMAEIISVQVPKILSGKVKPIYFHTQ
test.summary: Displacement of [3H]dihydrotestosterone from human recombinant androgen receptor expressed in SF9 baculovirus cells
pEC50: −log10 of the molar value.
Reported pEC50 values follow for various compounds

entry.smiles: CCCc1cc(-c2nc3c(s2)CCCC3)ccc1OCCCOc1ccc2c(c1)CC[C@H]2CC(=O)O
experimental.system: Androgen receptor (Homo sapiens)
pEC50: < 5.00

entry.smiles: O=C(O)C[C@@H]1CCc2cc(OCCCOc3ccc(-c4nc5c(s4)CCCC5)cc3)ccc21
experimental.system: Androgen receptor (Homo sapiens)
pEC50: < 5.00

----------
experimental.system: Peroxisome proliferator-activated receptor delta (Homo sapiens, UniProt Q03181)
Sequence (Q03181 whole entry): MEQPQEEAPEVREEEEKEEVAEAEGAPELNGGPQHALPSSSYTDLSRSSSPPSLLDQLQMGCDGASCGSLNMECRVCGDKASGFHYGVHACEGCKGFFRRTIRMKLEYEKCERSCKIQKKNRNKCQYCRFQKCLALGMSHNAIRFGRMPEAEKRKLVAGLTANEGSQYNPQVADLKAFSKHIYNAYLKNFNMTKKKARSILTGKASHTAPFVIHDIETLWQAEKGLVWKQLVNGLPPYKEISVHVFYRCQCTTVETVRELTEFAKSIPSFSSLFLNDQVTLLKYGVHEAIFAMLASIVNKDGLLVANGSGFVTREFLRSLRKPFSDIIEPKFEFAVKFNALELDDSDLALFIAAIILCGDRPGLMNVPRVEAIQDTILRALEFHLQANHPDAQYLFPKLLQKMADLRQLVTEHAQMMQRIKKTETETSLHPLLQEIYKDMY
test.summary: Agonist activity at human PPAR delta by FRET assay
Format: functional
pEC50: −log10 of the molar value.

entry.smiles: COc1csc(-c2ccc(OCCCOc3ccc4c(c3)CC[C@H]4CC(=O)O)c(OC)c2)n1
experimental.system: Peroxisome proliferator-activated receptor delta (Homo sapiens, UniProt Q03181)
pEC50: 8.52
--
entry.smiles: CCCc1cc(C#N)ccc1OCCCOc1ccc2c(c1)CC[C@H]2CC(=O)O
experimental.system: Peroxisome proliferator-activated receptor delta (Homo sapiens, UniProt Q03181)
pEC50: 7.60
--
entry.smiles: O=C(O)C[C@@H]1CCc2cc(OCCCOc3ccc(-c4ccc(C(F)(F)F)cn4)cc3)ccc21
experimental.system: Peroxisome proliferator-activated receptor delta (Homo sapiens, UniProt Q03181)
pEC50: 9.02
--
entry.smiles: COc1cc(-c2nc3c(s2)CCCC3)ccc1OCCCOc1ccc2c(c1)CC[C@H]2CC(=O)O
experimental.system: Peroxisome proliferator-activated receptor delta (Homo sapiens, UniProt Q03181)
pEC50: 8.48
--
entry.smiles: CCc1csc(-c2ccc(OCCCOc3ccc4c(c3)CC[C@H]4CC(=O)O)c(OC)c2)n1
experimental.system: Peroxisome proliferator-activated receptor delta (Homo sapiens, UniProt Q03181)
pEC50: 8.60

----------
experimental.system: Peroxisome proliferator-activated receptor alpha (Homo sapiens, UniProt Q07869)
test.summary: Agonist activity at human PPAR alpha by FRET assay
Assay type: functional
Lab note: cut-off is 300 nM. Strictly less in EC50 is 1.0. Exactly 300 nM or more is 0.0.

entry.smiles: O=C(O)C[C@@H]1CCc2cc(OCCCOc3ccc(C(F)(F)F)cc3)ccc21
class.label: 0.0

entry.smiles: Cc1cccc(-c2ccc(OCCCOc3ccc4c(c3)CC[C@H]4CC(=O)O)cc2)n1
class.label: 0.0

entry.smiles: O=C(O)C[C@@H]1CCc2cc(OCCCOc3ccc(-c4nc5c(s4)CCC5)cc3)ccc21
class.label: 1.0

entry.smiles: COc1cc(-c2nc(C)cs2)ccc1OCCCOc1ccc2c(c1)CC[C@H]2CC(=O)O
class.label: 1.0

entry.smiles: N#Cc1ccc(OCCCOc2ccc3c(c2)CC[C@H]3CC(=O)O)cc1
class.label: 0.0

entry.smiles: CCCc1cc(-c2nc(C)c(C(=O)N(C)C)s2)ccc1OCCCOc1ccc2c(c1)CC[C@H]2CC(=O)O
class.label: 1.0

entry.smiles: CCc1csc(-c2ccc(OCCCOc3ccc4c(c3)CC[C@H]4CC(=O)O)cc2)n1
class.label: 0.0

entry.smiles: O=C(O)C[C@@H]1CCc2cc(OCCCOc3ccc(-c4ccc5cc[nH]c5c4)cc3)ccc21
class.label: 0.0

entry.smiles: COc1ccc(OCCCOc2ccc3c(c2)CC[C@H]3CC(=O)O)cc1
class.label: 0.0

entry.smiles: Cc1cccc(OCCCOc2ccc3c(c2)CC[C@H]3CC(=O)O)c1
class.label: 0.0

----------
experimental.system: Peroxisome proliferator-activated receptor gamma (Mus musculus)
Sequence (P37238 whole entry): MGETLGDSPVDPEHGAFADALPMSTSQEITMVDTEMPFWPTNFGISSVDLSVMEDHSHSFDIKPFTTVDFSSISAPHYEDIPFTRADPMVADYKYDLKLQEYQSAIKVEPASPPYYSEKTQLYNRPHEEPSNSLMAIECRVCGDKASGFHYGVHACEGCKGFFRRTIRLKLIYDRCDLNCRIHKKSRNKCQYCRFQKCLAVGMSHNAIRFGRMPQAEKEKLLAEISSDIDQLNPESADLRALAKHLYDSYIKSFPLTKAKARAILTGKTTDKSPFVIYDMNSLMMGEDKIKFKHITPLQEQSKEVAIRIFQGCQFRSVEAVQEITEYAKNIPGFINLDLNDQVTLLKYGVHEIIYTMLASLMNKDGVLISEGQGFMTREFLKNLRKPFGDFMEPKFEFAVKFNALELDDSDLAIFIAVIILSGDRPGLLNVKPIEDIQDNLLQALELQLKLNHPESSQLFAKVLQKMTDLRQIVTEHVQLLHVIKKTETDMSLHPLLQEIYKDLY
test.summary: Agonist activity at PPAR gamma in mouse 3T3L1 cells assessed as increase in insulin receptor by IRBA
pEC50: −log10 of the molar value.
# pEC50 annotations

entry.smiles: O=C(O)C[C@@H]1CCc2cc(OCCCOc3ccc(-c4ccoc4)cc3)ccc21
sign: =
pEC50: 5.39

entry.smiles: COc1cc(-c2nc(OC(C)C)cs2)ccc1OCCCOc1ccc2c(c1)CC[C@H]2CC(=O)O
sign: =
pEC50: 7.36

entry.smiles: O=C(O)C[C@@H]1CCc2cc(OCCCOc3ccccc3)ccc21
sign: <
pEC50: 5.00

entry.smiles: COc1cc(C)ccc1OCCCOc1ccc2c(c1)CC[C@H]2CC(=O)O
sign: =
pEC50: 5.78

entry.smiles: O=C(O)C[C@@H]1CCc2cc(OCCCOc3ccc(-c4nc5c(s4)CCC5)cc3)ccc21
sign: =
pEC50: 5.92
